Where these numbers come from: ChEMBL document CHEMBL3885881

// reported MEAN CORPUSCULAR HEMOGLOBIN CONCENTRATION per item
Organism: Rattus norvegicus
method_description: DrugMatrix - Regimen: Daily Repeat
Format: toxicity, organism-based, Sprague-Dawley
Parameters: regimen Daily Repeat, gender Male, age 6-8 weeks
protocol_conditions: in vivo, po, 0 mg/kg, 120 h, tissue Blood, route oral GAVAGE, dose level Control, time 5 day, vehicle 100 % WATER
outcome_measure: MEAN CORPUSCULAR HEMOGLOBIN CONCENTRATION (G/DL)

>  <molecule>
CCN(C(C)=O)c1cccc(-c2ccnc3c(C#N)cnn23)c1

>  <experimental_result>
39.3

$$$$
>  <molecule>
CCN(CC)CCNC(=O)c1ccc(N)cc1 [PROCAINAMIDE]

>  <experimental_result>
40.07

$$$$
>  <molecule>
CN(C)CCC=C1c2ccccc2CCc2ccccc21

>  <experimental_result>
39.3

$$$$
>  <molecule>
CN(C)C(=O)Oc1cccc([N+](C)(C)C)c1.[Br-] [NEOSTIGMINE BROMIDE]

>  <experimental_result>
39.33

$$$$
>  <molecule>
CNC1=Nc2ccc(Cl)cc2C(c2ccccc2)=[N+]([O-])C1 [CHLORDIAZEPOXIDE]

>  <experimental_result>
39.43

$$$$
>  <molecule>
O=c1[nH]c(=O)n(C2CCCO2)cc1F (stereo unspecified)

>  <experimental_result>
39

$$$$

* * *

// reported CHOLESTEROL per item
Species on record: Rattus norvegicus
method_description: DrugMatrix - Regimen: Daily Repeat
Format: toxicity, organism-based, Sprague-Dawley
Design: regimen Daily Repeat, gender Male, age 6-8 weeks
protocol_conditions: in vivo, po, 0 mg/kg, 72 h, tissue Plasma, route oral GAVAGE, dose level Control, time 3 day, vehicle .5 % CMC

>  <molecule>
CCC1=C(C)CN(C(=O)NCCc2ccc(S(=O)(=O)NC(=O)N[C@H]3CC[C@H](C)CC3)cc2)C1=O [GLIMEPIRIDE]

>  <measurement_units>
mg/dL

>  <CHOLESTEROL>
70

$$$$
>  <molecule>
CN1CCN(C2=Nc3cc(Cl)ccc3Nc3ccccc32)CC1 [CLOZAPINE]

>  <measurement_units>
mg/dL

>  <CHOLESTEROL>
78.17

$$$$
>  <molecule>
CN(C)C(=O)C(CCN1CCC(O)(c2ccc(Cl)cc2)CC1)(c1ccccc1)c1ccccc1 [LOPERAMIDE]

>  <measurement_units>
mg/dL

>  <CHOLESTEROL>
70

$$$$
>  <molecule>
C[C@@](Cc1ccc(O)c(O)c1)(NN)C(=O)O.O [CARBIDOPA]

>  <measurement_units>
mg/dL

>  <CHOLESTEROL>
74

$$$$
>  <molecule>
COc1ccc2c(c1OC)C(=O)O[C@@H]2[C@H]1c2c(cc3c(c2OC)OCO3)CCN1C [NOSCAPINE]

>  <measurement_units>
mg/dL

>  <CHOLESTEROL>
71

$$$$
>  <molecule>
C[C@@H]1O[C@@H](O[C@H]2C[C@@H](O)[C@]3(CO)[C@H]4[C@H](O)C[C@]5(C)[C@@H](C6=CC(=O)OC6)CC[C@]5(O)[C@@H]4CC[C@]3(O)C2)[C@H](O)[C@H](O)[C@H]1O [OUABAIN]

>  <measurement_units>
mg/dL

>  <CHOLESTEROL>
68.17

$$$$
>  <molecule>
CCCNC(=O)NS(=O)(=O)c1ccc(Cl)cc1 [CHLORPROPAMIDE]

>  <measurement_units>
mg/dL

>  <CHOLESTEROL>
78.17

$$$$
>  <molecule>
CCCCC1=NC2(CCCC2)C(=O)N1Cc1ccc(-c2ccccc2-c2nnn[nH]2)cc1 [IRBESARTAN]

>  <measurement_units>
mg/dL

>  <CHOLESTEROL>
78.33

$$$$
>  <molecule>
COc1cc(OC)c(C(=O)CCCN2CCCC2)c(OC)c1 [BUFLOMEDIL]

>  <measurement_units>
mg/dL

>  <CHOLESTEROL>
77

$$$$
>  <molecule>
C[C@]12CC[C@@H]3c4ccc(O)cc4CC[C@H]3[C@@H]1C[C@@H](O)[C@@H]2O [ESTRIOL]

>  <measurement_units>
mg/dL

>  <CHOLESTEROL>
66.83

$$$$
>  <molecule>
COc1ccccc1[N+](=O)[O-] [2-NITROANISOLE]

>  <measurement_units>
mg/dL

>  <CHOLESTEROL>
74.5

$$$$
